System: TK-10 renal
Assay: NCI-60 one-dose screen, 48 h
Details: 10 µM unless noted
Compounds without any hit were thinned out: in the full panel of roughly 83,000, 20% have a hit. The source made the active and inactive calls. How the source made its calls: active means growth percent below 10; inactive means the rest.
Outcomes: 1 (active), 0 (inactive)

[
  {
    "molecule": "CCCCCCCC/C=C\\CCCCCCCCOc1cccc(CC(=O)NCC[N+]2(C)CCOCC2)c1",
    "qualitativeLabel": 0
  },
  {
    "molecule": "COCCOC1=C(Cl)C(=O)c2ccccc2C1=O",
    "qualitativeLabel": 0
  },
  {
    "molecule": "Cc1ccc(S(=O)(=O)N2C/C(=C\\c3cc(F)cc(F)c3)C(=O)/C(=C/c3cc(F)cc(F)c3)C2)cc1",
    "qualitativeLabel": 1
  },
  {
    "molecule": "COc1cc2nc(N3CCC[C@H](NC4=CC(=O)c5ccccc5C4=O)C3)nc(N)c2cc1OC",
    "qualitativeLabel": 1
  },
  {
    "molecule": "COC(=O)[C@@]12CC[C@@H](C)[C@]3(C[C@@H](c4ccoc4)OC3=O)[C@H]1CC[C@@H]1O[C@@]12C",
    "qualitativeLabel": 0
  },
  {
    "molecule": "Cc1oc2c(c1C(=O)N1CC[C@@H](N)C1)C(=O)c1c(c(O)c3ccccc3c1O)C2=O",
    "qualitativeLabel": 0
  },
  {
    "molecule": "COC(=O)c1c2c(c(C)[n+]([O-])c1C)C(=O)C=C(NCc1cccc(Cl)c1)C2=O",
    "qualitativeLabel": 0
  },
  {
    "molecule": "CCCCCCCCCCCCCCCC[N+]1(C)CCOCC1",
    "qualitativeLabel": 1
  },
  {
    "molecule": "O=C1CCC(N2C(=O)c3cccc(NCCOCCOCCNC(=O)c4cc5c(o4)C(=O)c4ccccc4C5=O)c3C2=O)C(=O)N1 (centres undefined)",
    "qualitativeLabel": 0
  }
]
